Where these numbers come from: patent US20190053492A1

- procedureSummary: log P by HPLC on reversed-phase column (C 18), EEC Directive 79/831 Annex V.A8
- Assay type: physicochemical
- condition: log P, neutral range; HPLC on reversed-phase column (C 18), 55° C.
Mark fulfilled only for LOGP_NEUTRAL values smaller than 4; exact matches and larger values are not fulfilled.

API: query returns whether the compound falls strictly under 4 in LOGP_NEUTRAL. Query: N#CCCCCCNC(=O)c1cc(-c2ccc(OC(F)(F)F)cc2)cc(NC(=O)C2CC2)n1
fulfilled

API: query returns whether the compound falls strictly under 4 in LOGP_NEUTRAL. Query: N#Cc1ccc(CNC(=O)c2cc(-c3ccc(OC(F)(F)C(F)F)cc3)cc(NC(=O)C3CC3)n2)cc1
fulfilled

API: query returns whether the compound falls strictly under 4 in LOGP_NEUTRAL. Query: O=C(NC1CC1(F)F)c1cc(-c2ccc(OC(F)(F)F)cc2)cc(NC(=O)C2CC2)n1 (stereo not shown)
fulfilled

API: query returns whether the compound falls strictly under 4 in LOGP_NEUTRAL. Query: N#Cc1ccc(NC(=O)c2cc(-c3ccc(C(F)(F)F)cc3)cc(NC(=O)C3CC3)n2)cc1
not fulfilled

API: query returns whether the compound falls strictly under 4 in LOGP_NEUTRAL. Query: O=C(NCc1ccc(Cl)c(F)c1)c1cc(-c2ccc(OC(F)(F)F)cc2)cc(NC(=O)C2CC2)n1
not fulfilled
